// reported half-life per item
- MEASUREMENT DESCRIPTION: PK study of the 12 alkaloids in rat plasma after oral administration of ZJ and FZJ extract (LC–MS/MS)
- Format: in vivo
- CONDITION DETAILS: 3.38 g/kg; rat plasma, oral ZJ extract, mean ± SD, n = 6; read-out: t1/2
// note: answer is a bare numeric in h

Query half-life for Cn1c(=O)n(CCC2(O)C(=O)Nc3ccccc32)c(=O)c2ccccc21 (stereo not drawn) [wuchuyuamide-I]
3.64

Query half-life for CCCCC=CCCCCCCCc1cc(=O)c2ccccc2n1C
8.99

Query half-life for O=c1c2c3c(ccc2cc2n1CCc1cc4c(cc1-2)OCO4)OCO3
8.93

---

- MEASUREMENT DESCRIPTION: Dose modified systemic exposure (AUC0→∞/D, Cmax/D)
- CONDITION DETAILS: oral FZJ extract
QUANTITY NAME: AUC0→∞/D (ratio of AUC0→∞ and dose)
No unit in the answer, only the number.

Example molecules with recorded AUC0→∞/D (ratio of AUC0→∞ and dose):
COc1cc2c(cc1OC)-c1cc3ccc4c(c3c[n+]1CC2)OCO4 [epiberberine]: 1.91
O=C1NCCc2cc3c(cc21)OCO3 [noroxyhydrastinine]: 268.50
CCCCC=CCCCCCCCc1cc(=O)c2ccccc2n1C: 13.16

Query AUC0→∞/D (ratio of AUC0→∞ and dose) for COc1cc2c(cc1OC)C(=O)NCC2
310.00

Query AUC0→∞/D (ratio of AUC0→∞ and dose) for Cn1c(=O)n(CCC2(O)C(=O)Nc3ccccc32)c(=O)c2ccccc21 (centres unmarked) [wuchuyuamide-I]
278.39

---

- MEASUREMENT DESCRIPTION: Stability of analytes in rat plasma under storage conditions
- Format: physicochemical
- CONDITION DETAILS: rat plasma, high QC concentration, n = 6
QUANTITY NAME: Stability RE, 30 days at −20 °C (%)
// note: answer is a bare numeric in %

Example compounds with recorded Stability RE, 30 days at −20 °C:
COc1cc2c(cc1OC)C(=O)NCC2: −2.68
Cn1c(=O)n(CCC2(O)C(=O)Nc3ccccc32)c(=O)c2ccccc21 (centres unmarked) [wuchuyuamide-I]: −1.38
COc1cc2c(cc1OC)-c1cc3ccc4c(c3c(=O)n1CC2)OCO4 [8-oxoepiberberine]: −2.71
COc1ccc2cc3[n+](cc2c1OC)CCc1cc2c(cc1-3)OCO2: −14.65

Query Stability RE, 30 days at −20 °C for O=c1c2c3c(ccc2cc2n1CCc1cc4c(cc1-2)OCO4)OCO3
−14.51

Query Stability RE, 30 days at −20 °C for O=C1NCCc2cc3c(cc21)OCO3 [noroxyhydrastinine]
−12.1

Query Stability RE, 30 days at −20 °C for COc1cc2c(cc1OC)-c1cc3ccc(OC)c(OC)c3c[n+]1CC2
−12.35

Query Stability RE, 30 days at −20 °C for C[n+]1c2n(c(=O)c3ccccc31)CCc1c-2[nH]c2ccccc12 [dehydroevodiamine]
4.85

Query Stability RE, 30 days at −20 °C for c1c2c(cc3c1OCO3)-c1cc3ccc4c(c3c[n+]1CC2)OCO4
0.65

Query Stability RE, 30 days at −20 °C for CCCCC=CCCCCCCCc1cc(=O)c2ccccc2n1C
6.12

Query Stability RE, 30 days at −20 °C for COc1cc2c(cc1OC)-c1cc3ccc4c(c3c[n+]1CC2)OCO4 [epiberberine]
−6.2
